assay: yeast growth modulation, basal conditions, primary screen, YJM789 clinical isolate, OD600, 24 h (AID 1089);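 note: growth of clinical yeast isolate S. cerevisiae YJM 789 seeded 1000 cells per well; test concentration not given here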; settings: S. cerevisiae YJM789 growth, higher = more signal, called active from +8 up or from −8 down
endpoint_label: z-score
Lab note: write the figure by itself, no unit.

Supply reported z-score belonging to this molecule: O=C1C[C@@H](O)[C@@H](O)[C@@H]2[C@@H]3C(=O)N(c4cccc(Oc5ccccc5)c4)C(=O)[C@@H]3CC[C@H]12
0.157

Please supply the value of reported z-score for the item CO[C@@H]1COC(=O)[C@H](CCSC)NC(=O)CC=C[C@@H](C)COC(=O)CCC[C@H]1C
-1.16

Give reported z-score value for CCOC(=O)NN=C1C[C@@H](O)[C@@H](O)[C@@H]2[C@@H]3C(=O)N([C@@H](C)c4ccccc4)C(=O)[C@@H]3CC[C@@H]12
-0.707

Using the record for O=C1CCCC=C1C(CCc1ccccc1)OC(=O)c1ccc(Br)cc1 (centres undefined) , state its measured z-score.
-0.596

###

test: P. aeruginosa biofilm formation inhibitors, primary screen, PAO1 strain, BacTiter-Glo luminescence, LB-PBS (AID 1144); settings: 12 h, higher = more signal
endpoint_label: z-score
The answer should be a number; do not append a unit.

Give me measured z-score, please, for this compound: C#CCCCON=C1C[C@@H](O)[C@@H](O)[C@@H]2[C@@H]3C(=O)N(Cc4ccccc4)C(=O)[C@@H]3CC[C@@H]12
0.943

Specify z-score for CC(C)(C)N1C(=O)[C@H]2[C@H]3[C@H](O)[C@H](O)CC(=O)[C@H]3CC[C@H]2C1=O and stop.
0.925

// fetch z-score given entry CO[C@H]1COC(=O)CC=C[C@@H](C)[C@H](OC)COC(=O)[C@@H]2CCCN2C(=O)CC=C[C@@H]1C
0.474

Please report z-score for the following compound: O=C(NN=C1C[C@@H](O)[C@@H](O)[C@@H]2[C@@H]3C(=O)N(C[C@@H]4CCCO4)C(=O)[C@@H]3CC[C@H]12)OCc1ccccc1
0.458

Respond only with z-score recorded for CC1O[C@H]2C3=C(C(=O)[C@@H]4O[C@@H]4[C@H]3O)[C@@H]1C1[C@@H](C)OC=C3[C@H](O)C4O[C@@H]4C(=NOCc4ccccc4)[C@]312 (stereo not given in full)
0.933

Dear colleague, please send me the reported z-score for CC(CCN1CCCCc2nc(C)c(C)cc21)=NO[C@H](C)c1cn([C@H](CO)Cc2ccccc2)nn1 when you can.
0.0152

Input CON=Cc1ccc(C(=O)N2[C@H](c3ccc(C)cc3)[C@@H](C)CC[C@H]2C(=O)OC)cc1 , output reported z-score.
-0.183

Return value of z-score for input CCOC(=O)[C@H](Cc1ccccc1)NC(=O)CCC1CC(OC(=O)NCc2ccc3c(c2)OCO3)CC2(CCCC(COC(=O)NCCc3ccccc3OC)O2)O1 (stereo not given in full) , no commentary.
0.8

Quick one: give measured z-score for CC(C)CCN1CCc2nc(COc3ccccc3)c3c(c2C1)CO[C@@H](C)C3
-0.372

# return recorded z-score for entry CO[C@@H]1COC(=O)CC=C[C@@H](C)[C@H](OC)COC(=O)[C@@H](C)COC(=O)CC=C[C@H]1C
0.416

Answer with the recorded z-score for the compound listed here: COc1ccc(O[C@@H]2[C@H](O)CO[C@@H]2C=Cc2ccccc2)cc1
-0.828

For the compound CCOC(=O)[C@H](Cc1ccccc1)NC(=O)CCC1CC(OC(=O)NCCc2ccc(F)cc2)CC2(CCCC(COC(=O)NCCc3ccccc3OC)O2)O1 (stereo not given in full) , report z-score.
0.248

For COC(=O)[C@@H]1CC[C@H](C)[C@@H](c2ccc(C)cc2)N1C(=O)c1ccc(C=NO[C@H](C)c2cn([C@@H]3COC[C@H]3O)nn2)cc1 , write its z-score.
0.068

Look up z-score of CCN1C(=O)[C@@H]2[C@H]3C(=CC[C@@H]2C1=O)C1(OCCCO1)[C@H]1O[C@H]1[C@H]3O and report it.
0.291

Specify reported z-score for the compound shown: Cc1ccc(S(=O)(=O)OC[C@H]2CN3[C@H](c4ccc(Br)cc4)[C@@H](C)CC[C@H]3C(=O)O2)cc1
-1.43

For the compound CCN1C(=O)[C@H]2[C@H]3[C@H](O)[C@H](O)CC(=NO[C@@H](C)c4cn([C@H](CO)Cc5ccccc5)nn4)[C@@H]3CC[C@H]2C1=O , give its reported z-score.
0.451

In one line, give reported z-score of the entry CC(CCN1CCCCc2nc(C)c(C)cc21)=NOC[C@@H](C)[C@H](OCc1ccccc1)C(C)C .
-0.4

Identify z-score associated with the compound CCOC(=O)[C@H](Cc1ccccc1)NC(=O)CCC1CC(OC(=O)NCCc2ccc(F)cc2)CC2(CCCC(COC(=O)NCC3CCCCC3)O2)O1 (stereo not given in full)
-1.12

Indicate its recorded z-score; the compound in question is COC(=O)[C@H](C)NC(=O)CCC1CC(OC(=O)NCc2ccc3c(c2)OCO3)CC2(CCCC(COC(=O)NCC(c3ccccc3)c3ccccc3)O2)O1 (stereo not given in full)
-0.405

Please look at this compound and report its z-score: COC(=O)CC=C[C@@H](C)[C@@H](C=NO[C@H](C)c1cn([C@H](CO)Cc2ccccc2)nn1)OC
0.226

Provide only the value of recorded z-score for CCOC(=O)[C@H](CC(C)C)NC(=O)CCC1CC(OC(=O)NCc2cccc3ccccc23)CC2(CCCC(COC(=O)NCc3cccc(C(F)(F)F)c3)O2)O1 (stereo not given in full)
-0.658

Read off the recorded z-score for COC(=O)CC=C[C@@H](C)[C@@H](C=NOC(C)CN1CCCc2nc(C)c(C)cc21)OC (stereo not given in full)
0.764

Check the records and state z-score for CO[C@@H]1COC(=O)CC=C[C@H](C)[C@H](OC)COC(=O)[C@H](C)NC(=O)CC=C[C@H]1C
0.938

Identify the reported z-score for the following entry. C#CCCCON=C1C[C@@H](O)[C@@H](O)[C@@H]2[C@@H]3C(=O)N(C(C)(C)C)C(=O)[C@@H]3CC[C@H]12
0.189

Return value of z-score for input CCCNC(=O)OC[C@H]1O[C@H](CCON=C(C)C)C=C[C@@H]1Oc1ccc(OC)cc1 , no commentary.
-0.523

Name the recorded z-score of the compound listed here: C=CC[C@@H]1C=C[C@H](ON=C2[C@H]3CCn4c(=O)n(-c5ccccc5)c(=O)n4[C@H]3[C@H](O)[C@@H]3O[C@H]23)[C@@H](CO)O1
-0.0199

Return z-score for the following compound: CCCCC#C[C@@H]1C=C[C@H](OC(C)=O)[C@@H](COC(C)=O)O1
0.713

Answer with reported z-score of CO[C@H]1COC(=O)[C@@H](Cc2ccccc2)NC(=O)[C@@H](C)COC(=O)CCC[C@@H]1C
-0.0381

Indicate its recorded z-score; the compound in question is CO[C@H]1COC(=O)[C@H](C)NC(=O)CC=C[C@@H](C)[C@H](OC)COC(=O)[C@@H](OCc2ccccc2)C=C[C@@H]1C
0.213

Return reported z-score. Input compound: O=C(NN=C1C[C@@H](O)[C@@H](O)[C@@H]2[C@@H]3C(=O)N(C4CCCCC4)C(=O)[C@@H]3CC[C@H]12)OCc1ccccc1
-0.19

The measurements presented in this section are drawn from PubChem BioAssay.
